- testSystem: Gal(b1-3)GlcNAc(b1-2)Man(a1-3)[Gal(b1-3)GlcNAc(b1-2)Man(a1-6)]Man(b1-4)GlcNAc(b1-4)GlcNAc
- assaySummary: glycan array binding signal (z-score within array); higher = stronger binding
- runConditions: glycan notation: IUPAC condensed, linker removed
About 410 targets per protein were measured; listed, in parts, are those with the strongest signals and a random draw of the rest.
List of glycan array binding signal (z-score) values.
Answer with a bare number; do not write a unit.

binder="Eosinophil-derived neurotoxin (EDN) (Homo sapiens), P10153 (protein) MVPKLFTSQICLLLLLGLLAVEGSLHVKPPQFTWAQWFETQHINMTSQQCTNAMQVINNYQRRCKNQNTFLLTTFANVVNVCGNPNMTCPSNKTRKNCHHSGSQVPLIHCNLTTPSPQNISNCRYAQTPANMFYIVACDNRDQRRDPPQYPVVPVHLDRII" numericresult=-0.33
binder="SBD-G4S3-SBD (protein) MASIPSSASVQLDSYNYDGSTFSGKIYVKNIAYSKKVTVVYADGSDNWNNNGNIIAASFSGPISGSNYEYWTFSASVKGIKEFYIKYEVSGKTYYDNNNSANYQVSTGGGGSGGGGSGGGGSEFASIPSSASVQLDSYNYDGSTFSGKIYVKNIAYSKKVTVVYADGSDNWNNNGNIIAASFSGPISGSNYEYWTFSASVKGIKEFYIKYEVSGKTYYDNNNSANYQVST" numericresult=4.15
binder="CFEM-CGl (Candida glabrata), Q6FRS0 (protein) VLATPPACLLACVAQVSKQSSQCHTLNQVGCFCENENTAIKNCLDSICPNGNSDAAYTAFKNSCGDVGKAVASV" numericresult=-0.248

Entry under review: SAG3 (Toxoplasma gondii), Q9BJ39 (protein) MQLWRRRAAGPASLGRQSLPLGCFFAAFGLCVLSAILGTGERGLFVAAGNSRRKITYFGTLTQKAPNWYRCSSTRAKEEVVGHVTLNKEHPDMTIECVDDGLGGEFLPLEGARSSYPRVCHIDAKDQDDCERNRGFLTDYIPGAKQYWYKIEKVEQNGEQSVLYKFTVPWILLPPAKQRYKVGCRYPNHEYCFVEVTVEPTPPMVEGKRVTCGYSESGPVNLEVDLSKNANFIEIRCGEQHHPQPSTYTLQYCSGDSVDPQKCSPQSLTNIFYDYSSSWWKGKLNGPDGATLTIPPGGFPEEDKSFLVGCSLTVDGPPFCNVKVRVAGNPRKWERGGGGHPGSGGLQPGTDGETQAGTGSSAGASSRMASVALAFLLGLLVHVAA . Reported glycan array binding signal (z-score)? 0.157

# lookup: glycan array binding signal (z-score) of RBMC1 (Vibrio cholerae) (protein) QQSQRVVTADNLMYLRSGFAIDAIGTTVNNLVGGPVQGTNGGVLRAPIALDQLQSVEVTSGLYNWGGYHIVAIKFTMKDGSSVLLGSTHYASNKKVETYTVPQGKRIKQINVWTGGWLVEGFQFVY 2.48

Name the recorded glycan array binding signal (z-score) for Apa (Mycobacterium tuberculosis), Rv1860 (protein) MHQVDPNLTRRKGRLAALAIAAMASASLVTVAVPATANADPEPAPPVPTTAASPPSTAAAPPAPATPVAPPPPAAANTPNAQPGDPNAAPPPADPNAPPPPVIAPNAPQPVRIDNPVGGFSFALPAGWVESDAAHFDYGSALLSKTTGDPPFPGQPPPVANDTRIVLGRLDQKLYASAEATDSKAAARLGSDMGEFYMPYPGTRINQETVSLDANGVSGSASYYEVKFSDPSKPNGQIWTGVIGSPAANAPDAGPPQRWFVVWLGTANNPVDKGAAKALAESIRPLVAPPPAPAPAPAEPAPAPAPAGEVAPTPTTPTPQRTLPA . -0.376
